Reference source for all entries: patent US20230263916A1

molecular target: T1, human Her2 (ECD)-Fc protein (human, UniProt P04626 23-652); test: PE-ELISA, A405 of antigen well over control well
T1 construct: extracellular domain; Made in HEK293F cells; also called hHer2 (ECD)-Fc antigen; Her2 (ECD)-Fc antigen; not shown: TEV restriction site at the C-terminal of hHer2 (ECD); IgG1 Fc of the pFUSE-IgG1 vector

BINDER | Ratio(+/-)
Nanobody No. 7 (VHH, not shown: tags (HA, His) implied by anti-HA detection and nickel column) VHH: QVQLQESGGGSVQAGETLRLSCTASGFTFDDSDMGWYRQAPGNECELVSTISSDGSTYYADSVKGRFTISQDNAKNTVYLQMNSLKPEDTAVYYCAADKDARGYELGTCESLDYWGRGTQVTVSS | 27.4
Nanobody No. 19 (VHH, also called 19; not shown: tags (HA, His) implied by anti-HA detection and nickel column) VHH: QVQLQESGGGSVQAGGSLRLSCTASGFTFDDSDSDMGWYRQAPGNECELVSSISSDGSTYYADSVKGRFTISQDNAKNTVYLQMNSLKPEDTAVYYCAAINSGYELGTCESLDYWGRGTQVTVSS | 19.6
Nanobody No. 3 (VHH, not shown: tags (HA, His) implied by anti-HA detection and nickel column) VHH: QVQLQESGGGSVQAGGSLRLSCTASGFTFDDSDVRWYRQAPGRECKLVSSISSDRSAYYEDSVKGRFTISQDNAKNTVYLQMNSLKPEDTAVYYCAAHPLHYELGTCAALDYWGRGTQVTVSS | 13
Nanobody No. 6 (VHH, not shown: tags (HA, His) implied by anti-HA detection and nickel column) VHH: QVQLQESGGGSVQAGETLRLSCTASGFTFDDSDMGWYRQAPGNECELVSHISSDGSTYYADSVKGRFTISQDNAKNTVFLQMNSLKPEDTAVYYCAADKDARGYELGTCESLDYWGRGTQVTVSS | 23.4
Nanobody No. 30 (VHH, also called 30; not shown: tags (HA, His) implied by anti-HA detection and nickel column) VHH: QVQLQESGGGSVQAGETLRLSCTASGFTFDDSDMGWYRQAPGNECELVSTISSDGRTYYADSVKGRFAISQNNAKNTVYLQMNSLKPEDTAVYYCAADQHRYGLGTCEALDYWGRGTQVTVSS | 23.9
Nanobody No. 29 (VHH, also called 29; not shown: tags (HA, His) implied by anti-HA detection and nickel column) VHH: QVQLQESGGGSVQAGGSLRLSCTASGFTFDDLDMRWYRQAPGNECELVSIINSDGRTYYADSVKGRFAISQNNAKNTVYLQMNSLKPEDTAVYYCAADQHRYGLGTCEALDYWGRGTQVTVSS | 18.8
Nanobody No. 15 (VHH, also called 15; not shown: tags (HA, His) implied by anti-HA detection and nickel column) VHH: QVQLQESGGGSVQAGGSLRLSCTASRFTFDDSDMGWYRQAPGNECELVSTISSDGATYYANSVKGRFTISQDNAANTVYLQMNSLKPEDTAVYYCAALEWEYELGTCEALDYWGQGTQVTVSS | 26.1
Nanobody No. 9 (VHH, camel VHH from pMECs phage display vector; also called Antibody no; not shown: tags (HA, His) implied by anti-HA detection and nickel column) VHH: QVQLQESGGGSVQAGETLRLSCTASGFTFDDSDMGWYRQAPGSECELVSTISSDGNTYYSNSVKGRFTISQDNAKNTVYLQMNSLKPEDTAVYYCAADDQHYELGTCEALDYWGRGTQVTVSS | 24.3
